Where do the numbers come from? From PubChem BioAssay AID463173.

tested on: DeltatarO mutant; assay: S. aureus survival, RN4220 and DeltatarO strains – OD600, teichoic acid synthesis inhibitors, primary screen (AID 463173); conditions: S. aureus RN4220 wild type/DeltatarO growth, OD600, 18 h, screened at 18.75 µg/mL (by protocol)
About 4,300 (8.3%) of roughly 52,000 compounds were called active. Cut-off read from the data, not from the text of the source: active = survival mostly below about 52% (no sharp cut-off); inactive = mostly above about 56%. What follows is part of a selection rich in actives, with near analogues and random picks from the rest.
Log the outcome using a class from y = active, n = inactive

In: Entry CN(c1ccc(F)cc1)S(=O)(=O)N1CCCC(C(=O)NCc2ccccc2Cl)C1 (configuration not stated) : call = ?
Out: n

In: Also COc1ccc(-c2c3c(=O)n(C)c(=O)n(C)c3c3c(-c4ccc(C)cc4)nc4ccccc4n23)cc1 ?
Out: n

In: Now consider CCOC(=O)c1ccc(CN(Cc2ccc(Cl)cc2Cl)S(=O)(=O)c2cccc(Cl)c2)cc1 and answer again.
Out: n

In: Another: Cc1cc(NC(=O)CC(C)C)no1
Out: n

In: Can you handle O=c1cc(-c2ccc(F)cc2)nc(SCc2nc(-c3ccccc3Cl)no2)[nH]1 next?
Out: n

In: For O=S(=O)(NCc1ccc(F)cc1)c1ccc2[nH]c3c(c2c1)CCCC3 then?
Out: y

In: Now the molecule CCc1cccc2sc(N3CCN(C(=O)C4CC4)CC3)nc12
Out: n

In: Do the same for Cc1ccc(NS(=O)(=O)c2ccc3[nH]c4c(c3c2)CCCCCC4)cc1C please
Out: y

In: Record: Cc1ccc(NS(=O)(=O)c2ccc3[nH]c4c(c3c2)CCCCCC4)cc1Cl
Out: n

In: Queued: O=c1cc(-c2ccccc2)nc(SCc2nc(-c3ccc(Cl)cc3)no2)[nH]1
Out: n

In: O=S(=O)(NCc1ccc(F)cc1)c1ccc2[nH]c3c(c2c1)CCCCC3 , same question.
Out: n

In: Try O=C(CCC(=O)N1CC2CCCN2c2ccccc21)NCc1ccccc1F (configuration not stated) next.
Out: n

In: Queued: COc1ccc(OC)c(NC(=O)C(C)n2c(=O)cc(C)c3c(C)nn(-c4ccccc4)c32)c1 (configuration not stated)
Out: n

In: Cool, now Cc1ccc(C2=NC(c3ccc(F)cc3)=Nc3ccc(C)cc3N2)cc1
Out: n

In: Cool, now Cc1ccc(S(=O)(=O)N(CC(=O)Nc2ccc(C(C)C)cc2)Cc2ccccc2)cc1
Out: n

In: Can you handle COc1ccc(S(=O)(=O)Nc2ccc3oc4c(c3c2)CCCC4)cc1 next?
Out: y

In: Moving on to the next molecule: CC(=O)Nc1cccc(NC(=O)C2CCCN2C(=O)Nc2ccccc2Cl)c1 (configuration not stated)
Out: n

In: Continue with Cc1ccc(NS(=O)(=O)c2ccc3[nH]c4c(c3c2)CCCCCC4)cc1
Out: n

In: Now this one: CC(C)(C)C1CCc2oc3ccc(NS(=O)(=O)c4cc(Cl)ccc4Cl)cc3c2C1 (configuration not stated)
Out: n

In: Next molecule: O=c1cc(-c2ccccc2)nc(SCc2nc(-c3ccccc3Cl)no2)[nH]1
Out: n

In: And the next one, CC(=O)c1cccc(Nc2ncnc3c2cnn3-c2cccc(Cl)c2)c1 ?
Out: n

In: Would you mind doing COC(=O)c1ccc(NC(=O)CN(Cc2ccccc2)S(=O)(=O)c2ccc(C)cc2)cc1 as well?
Out: y
